- testedOn: T1, Mouse CD79A+CD79B antigen (mouse) (UniProt P11911)
- T1 sequence (looked up) 1: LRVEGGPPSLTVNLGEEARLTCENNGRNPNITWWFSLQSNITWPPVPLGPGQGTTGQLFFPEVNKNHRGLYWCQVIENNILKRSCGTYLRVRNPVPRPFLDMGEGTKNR
- T1 sequence (looked up) 2: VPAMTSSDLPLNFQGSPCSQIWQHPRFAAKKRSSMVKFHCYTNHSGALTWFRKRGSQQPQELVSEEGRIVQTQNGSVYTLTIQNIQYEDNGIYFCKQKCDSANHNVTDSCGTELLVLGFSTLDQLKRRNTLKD
- experimentalDetails: ELISA on coated antigen, anti-myc detection; 200ng antibody added
For each entry below, report its OD450 nm value.
Unit OD450 implied. Number only.

get_value(item= anti-CD79B single-domain antibody JYB11 (VHH, Alpaca VHH from a phage library; ELISA detected with an anti-myc antibody; a myc tag is not described; not shown: His-tag protein at the C-terminal end) VHH: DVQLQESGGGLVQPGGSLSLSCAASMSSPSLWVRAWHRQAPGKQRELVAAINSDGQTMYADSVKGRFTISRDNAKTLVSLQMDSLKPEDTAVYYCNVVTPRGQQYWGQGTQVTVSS , readout=OD450 nm) returns 0.0589

get_value(item= anti-CD79B single-domain antibody JYB10 (VHH, Alpaca VHH from a phage library; ELISA detected with an anti-myc antibody; a myc tag is not described; not shown: His-tag protein at the C-terminal end) VHH: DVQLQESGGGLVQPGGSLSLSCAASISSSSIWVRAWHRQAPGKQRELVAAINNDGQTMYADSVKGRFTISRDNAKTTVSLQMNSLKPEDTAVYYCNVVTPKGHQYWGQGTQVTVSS , readout=OD450 nm) returns 0.0601

get_value(item= anti-CD79B single-domain antibody JYB14 (VHH, Alpaca VHH from a phage library; ELISA detected with an anti-myc antibody; a myc tag is not described; not shown: His-tag protein at the C-terminal end) VHH: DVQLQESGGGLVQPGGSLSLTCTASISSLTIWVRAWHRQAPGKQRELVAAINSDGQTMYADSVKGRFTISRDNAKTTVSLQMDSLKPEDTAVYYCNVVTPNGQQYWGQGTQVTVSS , readout=OD450 nm) returns 0.0597

get_value(item= anti-CD79B single-domain antibody JYB4 (VHH, Alpaca VHH from a phage library; not shown: His-tag protein at the C-terminal end) VHH: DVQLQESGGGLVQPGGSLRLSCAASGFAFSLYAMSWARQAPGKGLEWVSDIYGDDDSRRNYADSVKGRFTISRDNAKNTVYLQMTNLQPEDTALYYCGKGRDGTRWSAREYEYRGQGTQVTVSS , readout=OD450 nm) returns 0.0567

get_value(item= anti-CD79B single-domain antibody JYB8 (VHH, not shown: small tags and cut ends) VHH: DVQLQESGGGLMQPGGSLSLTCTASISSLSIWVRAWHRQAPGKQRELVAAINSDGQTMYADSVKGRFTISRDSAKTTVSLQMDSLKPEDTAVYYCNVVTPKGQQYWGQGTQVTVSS , readout=OD450 nm) returns 0.068
